- Tested on: diffuse large B-cell lymphoma SU-DHL-10 cell
- assay_procedure: MTT anti-proliferative assay, SU-DHL-10
- Type: cell-based, human
assay_endpoint: SI (selectivity index), IC50 (L-02)/IC50 (SU-DHL-10)

molecule="CCc1ccc(/C=C(\\C#N)c2ccc(OC(F)(F)F)cc2)cc1 [Compound 1a2f]" experimental_system="diffuse large B-cell lymphoma SU-DHL-10 cell" result="> 6.6"
molecule="N#C/C(=C\\c1cccc(C(F)(F)F)c1)c1ccc(C(F)(F)F)cc1 [Compound 1f2l]" experimental_system="diffuse large B-cell lymphoma SU-DHL-10 cell" result="> 1.9"
molecule="N#C/C(=C\\c1ccc(Br)cc1)c1ccc(OC(F)(F)F)cc1 [Compound 1a2d]" experimental_system="diffuse large B-cell lymphoma SU-DHL-10 cell" result="> 1.3"
molecule="Cc1ccc(/C=C(\\C#N)c2cccc(OC(F)(F)F)c2)cc1 [Compound 1b2e]" experimental_system="diffuse large B-cell lymphoma SU-DHL-10 cell" result="> 1.8"
molecule="N#C/C(=C\\c1cccc(F)c1)c1ccc(C(F)(F)F)cc1 [Compound 1f2h]" experimental_system="diffuse large B-cell lymphoma SU-DHL-10 cell" result="> 1.7"
molecule="CCN(CC)c1ccc(/C=C(\\C#N)c2ccc(OC)cc2)cc1 [Compound 1e2c]" experimental_system="diffuse large B-cell lymphoma SU-DHL-10 cell" result="> 1.6"
molecule="Cc1ccc(/C(C#N)=C/c2ccc(N(C)C)cc2)cc1 [Compound 1d2a]" experimental_system="diffuse large B-cell lymphoma SU-DHL-10 cell" result="> 5.0"
molecule="CCN(CC)c1ccc(/C=C(\\C#N)c2ccc(C)cc2)cc1 [Compound 1d2b]" experimental_system="diffuse large B-cell lymphoma SU-DHL-10 cell" result="> 2.3"
molecule="N#C/C(=C\\c1ccc(/C=C(\\C#N)c2ccc(C(F)(F)F)cc2)cc1)c1ccc(C(F)(F)F)cc1 [Compound 1f2w]" experimental_system="diffuse large B-cell lymphoma SU-DHL-10 cell" result="> 4545"

====

- System: SGC-7901 early differentiation gastric cancer cell
- assay_procedure: MTT anti-proliferative assay, SGC-7901
- Assay type: cell-based, human
- condition_info: MTT, 48 h
assay_endpoint: IC50

compound="Cc1cccc(/C=C(\\C#N)c2ccc(OC(F)(F)F)cc2)c1 [Compound 1a2q]" assay_endpoint=IC50 result="> 100 µM"
compound="N#C/C(=C\\c1ccc(Cl)cc1)c1cccc(OC(F)(F)F)c1 [Compound 1b2c]" assay_endpoint=IC50 result="> 100 µM"
compound="COc1cc(/C=C(\\C#N)c2ccc(OC(F)(F)F)cc2)cc(OC)c1OC [Compound 1a2l]" assay_endpoint=IC50 result="> 100 µM"
compound="CCN(CC)c1ccc(/C=C(\\C#N)c2ccc(C)cc2)cc1 [Compound 1d2b]" assay_endpoint=IC50 result="> 100 µM"
compound="CCc1ccc(/C=C(\\C#N)c2cccc(OC(F)(F)F)c2)cc1 [Compound 1b2f]" assay_endpoint=IC50 result="61.7 µM"
compound="Cc1ccc(/C=C(\\C#N)c2ccccc2OC(F)(F)F)cc1 [Compound 1c2d]" assay_endpoint=IC50 result="50.1 µM"
compound="CCN(CC)c1ccc(/C=C(\\C#N)c2ccc(C(F)(F)F)cc2)cc1 [Compound 1f2b]" assay_endpoint=IC50 result="> 100 µM"
compound="CCCCCOc1ccc(/C=C(\\C#N)c2ccc(OC(F)(F)F)cc2)cc1 [Compound 1a2o]" assay_endpoint=IC50 result="> 100 µM"
compound="COc1cccc(/C=C(\\C#N)c2ccc(C(F)(F)F)cc2)c1 [Compound 1f2t]" assay_endpoint=IC50 result="> 100 µM"

====

- Test system: HCT116 colectal cancer cell
- assay_procedure: MTT anti-proliferative assay, HCT116
- Type: cell-based, human
- condition_info: MTT, 48 h; read-out: IC50 HCT-116
We begin with a simple list: items and their reported IC50.
assay_endpoint: IC50

compound="N#C/C(=C\\c1cccc2ccccc12)c1ccc(C(F)(F)F)cc1 [Compound 1f3d]" result="> 100 µM"
compound="Cc1cc(C)c(/C=C(\\C#N)c2ccc(C(F)(F)F)cc2)c(C)c1 [Compound 1f2r]" result="> 100 µM"
compound="N#C/C(=C\\c1ccc(N2CCOCC2)cc1)c1ccc(OC(F)(F)F)cc1 [Compound 1a2s]" result="> 100 µM"

====

- System: MGC-803 late stage differentiation gastric cancer cell
- assay_procedure: MTT anti-proliferative assay, MGC-803
- Assay type: cell-based, human
- condition_info: MTT, 48 h
pIC50: −log10 of the molar value.
We begin with a simple list: items and their reported pIC50.
assay_endpoint: pIC50

compound="N#C/C(=C\\c1ccccc1)c1ccc(C(F)(F)F)cc1 [Compound 1f2c]" assay_endpoint=pIC50 result="< 4.00"
compound="N#C/C(=C\\c1ccco1)c1ccc(OC(F)(F)F)cc1 [Compound 1a3a]" assay_endpoint=pIC50 result="< 4.00"
compound="CCCOc1ccc(/C=C(\\C#N)c2ccc(OC(F)(F)F)cc2)cc1 [Compound 1a2m]" assay_endpoint=pIC50 result="< 4.00"
compound="CCCCOc1ccc(/C=C(\\C#N)c2ccc(OC(F)(F)F)cc2)cc1 [Compound 1a2n]" assay_endpoint=pIC50 result="< 4.00"

====

- Test system: Raji B lymphoblastoid cell
- assay_procedure: MTT anti-proliferative assay, Raji
- Format: cell-based, human
We begin with a simple list: items and their reported SI (selectivity index), IC50 (L-02)/IC50 (Raji).
assay_endpoint: SI (selectivity index), IC50 (L-02)/IC50 (Raji)

smiles_repr=COc1ccc(/C(C#N)=C/c2cc(OC)c(OC)c(OC)c2)cc1 result="> 4.0"
smiles_repr=CCN(CC)c1ccc(/C=C(\C#N)c2cc(OC)c(OC)c(OC)c2)cc1 result="> 270"
smiles_repr=N#C/C(=C\c1cccc(C(F)(F)F)c1)c1ccc(C(F)(F)F)cc1 result="> 1.3"

====

- System: HCT116 colectal cancer cell
- assay_procedure: MTT anti-proliferative assay, HCT116
- Format: cell-based, human
- condition_info: MTT, 48 h; read-out: IC50 HCT-116
pIC50: −log10 of the molar value.
We begin with a simple list: items and their reported pIC50.
assay_endpoint: pIC50

compound="CCN(CC)c1ccc(/C=C(\\C#N)c2ccc(C)cc2)cc1 [Compound 1d2b]" cmp== numeric_value=5.51
compound="N#C/C(=C\\c1ccc(N2CCCCC2)cc1)c1ccc(OC(F)(F)F)cc1 [Compound 1a2u]" cmp=< numeric_value=4.00
compound="N#C/C(=C\\c1ccc(N2CCOCC2)cc1)c1cccc(OC(F)(F)F)c1 [Compound 1b2i]" cmp== numeric_value=4.91
compound="N#C/C(=C\\c1ccc(F)cc1)c1ccc(C(F)(F)F)cc1 [Compound 1f2d]" cmp=< numeric_value=4.00

====

- Test system: BEL-7402 liver cancer cell
- assay_procedure: MTT anti-proliferative assay, BEL-7402
- Format: cell-based, human
- condition_info: Homo sapiens, Bel-7402; MTT, 48 h
assay_endpoint: IC50 (µM)

compound=N#C/C(=C\c1cn(-c2ccccc2)nn1)c1ccc(OC(F)(F)F)cc1 cmp=> numeric_value=100
compound="COc1ccc(/C=C\\c2cc(OC)c(OC)c(OC)c2)cc1O [CA-4, combretastatin A-4, reference compound]" cmp== numeric_value=2
compound=COc1cccc(-n2cc(/C=C(\C#N)c3ccc(OC(F)(F)F)cc3)nn2)c1 cmp=> numeric_value=100
compound=N#C/C(=C\c1ccc(/C=C/C(=O)c2ccc(Br)cc2)cc1)c1ccc(OC(F)(F)F)cc1 cmp=> numeric_value=100
compound="Oc1ccc(/C=C/c2cc(O)cc(O)c2)cc1 [Resveratrol, resveratrol, reference compound]" cmp== numeric_value=42.5

====

- Test system: HCT116 colectal cancer cell
- assay_procedure: MTT anti-proliferative assay, HCT116
- Assay type: cell-based, human
- condition_info: MTT, 48 h; read-out: IC50 HCT-116
pIC50: −log10 of the molar value.
assay_endpoint: pIC50

compound="N#C/C(=C\\c1ccc(Cl)cc1)c1cccc(OC(F)(F)F)c1 [Compound 1b2c]" experimental_system="HCT116 colectal cancer cell" result="< 4.00"
compound="CCc1ccc(/C=C(\\C#N)c2ccc(C(F)(F)F)cc2)cc1 [Compound 1f2p]" experimental_system="HCT116 colectal cancer cell" result="< 4.00"
compound="N#C/C(=C\\c1ccccc1)c1ccc(OC(F)(F)F)cc1 [Compound 1a2a]" experimental_system="HCT116 colectal cancer cell" result="< 4.00"
compound="COc1cc(/C=C(\\C#N)c2ccc(OC(F)(F)F)cc2)cc(OC)c1OC [Compound 1a2l]" experimental_system="HCT116 colectal cancer cell" result="< 4.00"
compound="Cc1ccc(/C=C(\\C#N)c2ccc(OC(F)(F)F)cc2)cc1 [Compound 1a2e]" experimental_system="HCT116 colectal cancer cell" result="< 4.00"
compound="Cc1cccc(/C=C(\\C#N)c2ccc(C(F)(F)F)cc2)c1 [Compound 1f2o]" experimental_system="HCT116 colectal cancer cell" result="< 4.00"
compound="N#C/C(=C\\c1cccc(F)c1)c1ccc(C(F)(F)F)cc1 [Compound 1f2h]" experimental_system="HCT116 colectal cancer cell" result="< 4.00"
compound="CCN(CC)c1ccc(/C=C(\\C#N)c2ccc(OC(F)(F)F)cc2)cc1 [Compound 1a2i]" experimental_system="HCT116 colectal cancer cell" result="< 4.00"
compound="CC(C)c1ccc(/C=C(\\C#N)c2ccc(C(F)(F)F)cc2)cc1 [Compound 1f2q]" experimental_system="HCT116 colectal cancer cell" result="< 4.00"
compound="CCCCCCOc1ccc(/C=C(\\C#N)c2ccc(OC(F)(F)F)cc2)cc1 [Compound 1a2p]" experimental_system="HCT116 colectal cancer cell" result="< 4.00"
compound="COc1cc(/C=C(\\C#N)c2ccc(C(F)(F)F)cc2)cc(OC)c1OC [Compound 1f2u]" experimental_system="HCT116 colectal cancer cell" result="< 4.00"
compound="CN(C)c1ccc(/C=C(\\C#N)c2cccc(OC(F)(F)F)c2)cc1 [Compound 1b2h]" experimental_system="HCT116 colectal cancer cell" result=6.52
compound="CCCOc1ccc(/C=C(\\C#N)c2ccc(OC(F)(F)F)cc2)cc1 [Compound 1a2m]" experimental_system="HCT116 colectal cancer cell" result="< 4.00"
compound="N#C/C(=C\\c1ccc(Cl)cc1)c1ccc(C(F)(F)F)cc1 [Compound 1f2e]" experimental_system="HCT116 colectal cancer cell" result="< 4.00"
compound="Cc1cc(C)c(/C=C(\\C#N)c2ccc(OC(F)(F)F)cc2)c(C)c1 [Compound 1a2r]" experimental_system="HCT116 colectal cancer cell" result="< 4.00"
compound="COc1ccc(/C(C#N)=C/c2cc(OC)c(OC)c(OC)c2)cc1 [Compound 1e2a]" experimental_system="HCT116 colectal cancer cell" result=5.14
compound="N#C/C(=C\\c1ccccc1Br)c1ccc(C(F)(F)F)cc1 [Compound 1f2i]" experimental_system="HCT116 colectal cancer cell" result="< 4.00"
compound="N#C/C(=C\\c1ccc(Br)cc1)c1cccc(OC(F)(F)F)c1 [Compound 1b2d]" experimental_system="HCT116 colectal cancer cell" result=4.82
compound="N#C/C(=C\\c1cccc2ccccc12)c1ccc(OC(F)(F)F)cc1 [Compound 1a3c]" experimental_system="HCT116 colectal cancer cell" result="< 4.00"
compound="CCN(CC)c1ccc(/C=C(\\C#N)c2cc(OC)c(OC)c(OC)c2)cc1 [Compound 1g2b]" experimental_system="HCT116 colectal cancer cell" result=6.00
compound="CCN(CC)c1ccc(/C=C(\\C#N)c2ccc(C(F)(F)F)cc2)cc1 [Compound 1f2b]" experimental_system="HCT116 colectal cancer cell" result=4.48
compound="COc1ccc(/C=C(\\C#N)c2cccc(OC(F)(F)F)c2)cc1 [Compound 1b2j]" experimental_system="HCT116 colectal cancer cell" result="< 4.00"
compound="CCc1ccc(/C=C(\\C#N)c2ccc(OC(F)(F)F)cc2)cc1 [Compound 1a2f]" experimental_system="HCT116 colectal cancer cell" result=4.36
compound="N#C/C(=C\\c1ccccc1C(F)(F)F)c1ccc(C(F)(F)F)cc1 [Compound 1f2m]" experimental_system="HCT116 colectal cancer cell" result="< 4.00"
compound="CN(C)c1ccc(/C=C(\\C#N)c2ccc(C(F)(F)F)cc2)cc1 [Compound 1f2a]" experimental_system="HCT116 colectal cancer cell" result="< 4.00"
compound="COc1ccc(/C(C#N)=C/c2ccc(N(C)C)cc2)cc1 [Compound 1e2b]" experimental_system="HCT116 colectal cancer cell" result="< 4.00"
compound="N#C/C(=C\\c1ccc(Cl)cc1)c1ccc(OC(F)(F)F)cc1 [Compound 1a2c]" experimental_system="HCT116 colectal cancer cell" result=4.69
compound="Cc1ccc(/C=C(\\C#N)c2ccc(C(F)(F)F)cc2)cc1 [Compound 1f2n]" experimental_system="HCT116 colectal cancer cell" result=4.24
compound="N#C/C(=C\\c1ccccc1F)c1ccc(C(F)(F)F)cc1 [Compound 1f2g]" experimental_system="HCT116 colectal cancer cell" result="< 4.00"
compound="N#C/C(=C\\c1ccco1)c1ccc(C(F)(F)F)cc1 [Compound 1f3a]" experimental_system="HCT116 colectal cancer cell" result="< 4.00"
